Attribute: photoluminescence quantum yield
Test: photoluminescence quantum yield (fraction); solvent given as SMILES
Details: in C1CCOC1
MEASURED ATTRIBUTE: photoluminescence quantum yield

ENTRY SMILES	ENDPOINT RESULT
COC(=O)c1ccc(C2=C3C=CC(C)=[N+]3[B-](F)(F)n3c(C)ccc32)cc1	0.056
CN(C)c1ccc(C2=Nc3sc4ccccc4[n+]3[B-](F)(F)O2)cc1	0.78
COc1ccc2nc3c(nc2c1)c(-c1ccccc1)nn3C	0.34
CC(=O)c1ccc(-c2cnc3nn4ccccc4c3n2)cc1	0.5
CN(C)c1ccc(C2=C(c3ccccc3)c3sc4ccccc4[n+]3[B-](F)(F)O2)cc1	0.01
CCC1=C(C)C2=C(c3cc(C(=O)Cl)cc(C(=O)Cl)c3)c3c(C)c(CC)c(C)n3[B-](F)(F)[N+]2=C1C	0.61
c1ccc2c(c1)[nH]c1cccnc12	0.081
CN(C)CCN(Cc1c2ccccc2cc2ccccc12)c1ccc([N+](=O)[O-])cn1	0.0009
c1ccc(-c2ccc(-c3ccc(N(c4ccccc4)c4ccccc4)cc3)c3nsnc23)cc1	0.105
CCn1c2ccccc2c2cc(-c3cc(-c4ccc5c(c4)c4ccccc4n5CC)nc(S(C)(=O)=O)n3)ccc21	0.61
CC1=CC(c2ccc(N(C)C)cc2)=[N+]2C1=Nc1c(C)cc(-c3ccc(N(C)C)cc3)n1[B-]2(F)F	0.13
CN(C)CCN(Cc1c2ccccc2cc2ccccc12)c1ccc([N+](=O)[O-])cc1[N+](=O)[O-]	0.0004
Nc1cccc2c1C(=O)NC2=O	0.97
N#Cc1c(N2CCCCC2)cc(-c2ccc(-c3ccccc3)cc2)c2c1CCc1ccccc1-2	0.38
CCOc1cc2c(cc1/C=C/C1=CC(=C(C#N)C#N)CC(C)(C)C1)c1ccccc1n2CC	0.021
Cc1ccccc1/C(C#N)=C/c1ccc(N(C)C)cc1	0.011
O=C1c2ccccc2-c2ccc(N3CCOCC3)c3cccc1c23	0.15
COc1ccc2c3cccc4c(OC)ccc(c5cccc1c52)c43	0.88
COc1cccc2cc(-c3ccc([N+](=O)[O-])cc3)c(=N)oc12	0.004
O=C1c2ccc3c4ccc5c6c(ccc(c7ccc(c2c37)C(=O)N1c1ccncc1)c64)C(=O)N(c1ccncc1)C5=O	0.508
COc1cccc(C2=CC3=C(c4c(C)cc(C)cc4C)c4cc(-c5cccc(OC)c5)c(-c5cccc(OC)c5)n4[B-](F)(F)[N+]3=C2c2cccc(OC)c2)c1	0.76
CN(C)c1ccc(C2=Nc3scc(-c4ccc(N(C)C)cc4)[n+]3[B-](F)(F)O2)cc1	0.01
COc1cc2c(cc1/C=C/C1=CC(=C(C#N)C#N)CC(C)(C)C1)c1ccccc1n2C	0.013
CC(C)(C)c1ccc2c3c(c4ccc(C(C)(C)C)cc4c2c1)=[N+]1C(=C(c2ccccc2)c2c(Br)c4c5ccc(C(C)(C)C)cc5c5cc(C(C)(C)C)ccc5c4n2[B-]1(F)F)C=3Br	0.02
COc1c2ccccc2c(OC)c2c(C#CC(C)(C)C)c3cc4sccc4cc3c(C#CC(C)(C)C)c12	0.1
COc1ccc2c(c1)sc1[n+]2[B-](F)(F)OC(c2ccc(N(C)C)cc2)=N1	0.8
CCN(CC)c1ccc2cc(-c3csc(N)c3C#N)c(=O)oc2c1	0.62
CC(C)(C)c1ccc2c(c1)c1cc(C(C)(C)C)ccc1n2-c1ccc2oc3nc4oc5ccc(C(F)(F)F)cc5c4cc3c2c1	0.073
Cc1ccc(NC(=O)c2ccc(N(C)C)cc2)cc1	0.0028
c1ccc(-n2c3c(c4c2-c2ccccc2C42c4ccccc4-c4ccccc42)C2(c4ccccc4-c4ccccc42)c2ccccc2-3)cc1	0.37
Cn1cccc1-c1ccc(C#N)cc1	0.94
CCOC(=O)C(C(=O)OCC)C1=[N+]2C(=C(c3ccc(C)cc3)c3ccc(C(C(=O)OCC)C(=O)OCC)n3[B-]2(F)F)C=C1	0.46
CCCCCCCCC1(CCCCCCCC)c2cc3c(cc2-c2sc(-c4ccc(/C=C5\SC(N6CCCCC6)=NC5=O)c5nsnc45)cc21)C(CCCCCCCC)(CCCCCCCC)c1cc(-c2ccc(/C=C4\SC(N5CCCCC5)=NC4=O)c4nsnc24)sc1-3	0.14
COc1ccc(/C=C/C=C/C=C/c2ccc([N+](=O)[O-])cc2)cc1	0.44
COc1cc(OC)cc(C2=C3C(C)=C(I)C(/C=C/c4ccsc4)=[N+]3[B-](F)(F)n3c(/C=C/c4ccsc4)c(I)c(C)c32)c1	0.01
COc1ccc(C#Cc2ccc(C#Cc3ccc(C#Cc4ccccc4C#N)cc3C#N)cc2C#N)cc1	0.972

* * *

Experiment: photoluminescence quantum yield (fraction); solvent given as SMILES
Details: in CO
// bucketize photoluminescence quantum yield: bottom bin: < 0.03; middle bin: ≥ 0.03 and < 0.2; top bin: ≥ 0.2

COMPOUND	CLASS LABEL
COC(=O)C(NC(=O)OC(C)(C)C)c1ccc2oc(-c3ccc(OC(=O)c4ccccc4)cc3O)nc2c1 (stereo unspecified)	bottom bin
O=C(O)c1ccc(-c2cnc(-c3ccc(N(c4ccccc4)c4ccccc4)cc3)s2)cc1	top bin
CCOC(=O)C1=CN(c2ccccc2)C=C(C(=O)OCC)C1	middle bin
COc1ccc(-c2cc(B(c3c(C)cc(C)cc3C)c3c(C)cc(C)cc3C)c(-c3sc(-c4ccc(OC)cc4)cc3P(=O)(c3ccccc3)c3ccccc3)s2)cc1	top bin
CC1(C)C(/C=C/C2=C(Oc3ccc(CCN=C=S)cc3)C(=C/C=C3/N(CCCS(=O)(=O)[O-])c4ccccc4C3(C)C)/CCC2)=[N+](CCCS(=O)(=O)[O-])c2ccccc21	middle bin
CN(C)CCNCc1c2ccccc2cc2ccccc12	bottom bin
Cc1cc(C)c(B(c2cc(-c3ccc(C(C)(C)C)cc3)sc2-c2sc(-c3ccc(C(C)(C)C)cc3)cc2P(=O)(c2ccccc2)c2ccccc2)c2c(C)cc(C)cc2C)c(C)c1	top bin
CC1=C2C=CC(C)=[N+]2[B-](F)(F)n2cccc21	top bin
COC(=O)C[C@H](Cc1c[nH]c2ccccc12)NC(=O)[C@H](CC(=O)N[C@@H](CC1=CCc2ccccc21)C(=O)OC)NC(=O)OC(C)(C)C	middle bin
COc1cc(/C=C2/SC(=O)NC2=O)cc(OC)c1O	middle bin
Cc1ccc(OCc2cc(=O)oc3c2ccc2ccccc23)cc1	bottom bin
Cc1cnc(NC(=O)C2=C([O-])c3ccccc3S(=O)(=O)N2C)s1	bottom bin
CN(C)CCN(Cc1c2ccccc2cc2ccccc12)c1ccc([N+](=O)[O-])cn1	bottom bin
CC1(C)C(/C=C/C2=C(c3ccc(C(=O)O)cc3)C(=C/C=C3/N(CCCCS(=O)(=O)[O-])c4ccc(S(=O)(=O)[O-])cc4C3(C)C)/CCC2)=[N+](CCCCS(=O)(=O)[O-])c2ccc(S(=O)(=O)[O-])cc21	middle bin
CCN(CC)c1ccc2c(C)cc(=O)oc2c1	top bin
F[B-]1(F)n2c(nc3c4ccccc4c4ccccc4c32)-c2cccc[n+]21	middle bin
c1ccc(N(c2ccccc2)c2ccc(-c3ncc(-c4ccc(-c5ccc(-c6cnc(-c7ccc(N(c8ccccc8)c8ccccc8)cc7)s6)s5)s4)s3)cc2)cc1	middle bin
CSc1sc(C(C)=O)c2nn[nH]c(=O)c12	bottom bin
CC1(C)CC(NCc2ccc3ccc4cccc5ccc2c3c45)CC(C)(C)N1[O]	middle bin
CC1=N/C(=C\c2ccc(N(C)C)cc2)C(=O)N1C	bottom bin
Cn1cc(/C=C/C(=O)c2ccccc2)c2ccccc21	middle bin
c1ccc(-c2nc3c(c4c2-c2ccccc2CC4)-c2ccccc2CC3)cc1	bottom bin
c1cc2c3c(cccc3c1)NC(c1ccc3ccc4cccc5ccc1c3c45)N2	middle bin
Cc1ccc(C2=C3C=CC(C#Cc4ccccc4)=[N+]3[B-](F)(F)n3c(Cl)ccc32)cc1	top bin
COCCOc1cc(C=O)c(OCCOC)cc1C=O	top bin
Brc1cnc(-c2ccc(N(c3ccccc3)c3ccccc3)cc2)s1	middle bin
CN1/C(=C/C=C(/C=C/c2sc3ccccc3[n+]2C)c2cc(F)cc(F)c2)Sc2ccccc21	middle bin
Cc1ccc(C2=C3C=CC(C#Cc4ccccc4)=[N+]3[B-](F)(F)n3c(C#Cc4ccccc4)ccc32)cc1	top bin
COc1ccc(NC(=O)C(C(=O)Nc2ccc(OC)cc2)C(c2ccccc2O)c2c(C)[nH]c3ccccc23)cc1 (stereo unspecified)	bottom bin
CC(=O)n1cc(/C=C/c2ccc([N+](=O)[O-])cc2)c2ccccc21	bottom bin
CCN(CC)c1ccc(-c2nc3c(c4c2-c2ccc(C#N)cc2CC4)-c2ccc(C#N)cc2CC3)cc1	middle bin
O=c1oc2ccccc2c(O)c1C(CC(O)c1ccc(-c2ccc(Br)cc2)cc1)c1ccccc1 (stereo unspecified)	middle bin
CCCN1/C(=C/C=C/C=C/C2=[N+](CCC)c3ccccc3C2(C)C)C(C)(C)c2ccccc21	top bin
CN(C)c1ccc(C2=Cc3c4ccccc4c4ccccc4[n+]3[B-](F)(F)O2)cc1	top bin

* * *

Recorded photoluminescence quantum yield, one value per entry.
Experiment: photoluminescence quantum yield (fraction); solvent given as SMILES
Conditions: in CO

COMPOUND	photoluminescence quantum yield
O=CN1N=C(c2ccc(Br)cc2)C[C@@H]1c1ccccc1	0.05
CC1(C)C2=[N+](CCCCCC(=O)NCCNC(=O)CCCCCN3/C(=C/C=C/C=C/C=C/2)C(C)(C)c2cc(S(=O)(=O)[O-])ccc23)c2ccc(S(=O)(=O)[O-])cc21	0.57
COC(=O)c1ccc(C2=C3C=CC(C)=[N+]3[B-](F)(F)n3c(C)ccc32)cc1	0.032
COc1ccc(C2CC(c3ccc(O)cc3)=NN2c2ccc(S(N)(=O)=O)cc2)cc1 (centres undefined)	0.38
